system: PKR R532W (Homo sapiens, UniProt P30613, R532W)
Sequence (P30613 whole entry R532W): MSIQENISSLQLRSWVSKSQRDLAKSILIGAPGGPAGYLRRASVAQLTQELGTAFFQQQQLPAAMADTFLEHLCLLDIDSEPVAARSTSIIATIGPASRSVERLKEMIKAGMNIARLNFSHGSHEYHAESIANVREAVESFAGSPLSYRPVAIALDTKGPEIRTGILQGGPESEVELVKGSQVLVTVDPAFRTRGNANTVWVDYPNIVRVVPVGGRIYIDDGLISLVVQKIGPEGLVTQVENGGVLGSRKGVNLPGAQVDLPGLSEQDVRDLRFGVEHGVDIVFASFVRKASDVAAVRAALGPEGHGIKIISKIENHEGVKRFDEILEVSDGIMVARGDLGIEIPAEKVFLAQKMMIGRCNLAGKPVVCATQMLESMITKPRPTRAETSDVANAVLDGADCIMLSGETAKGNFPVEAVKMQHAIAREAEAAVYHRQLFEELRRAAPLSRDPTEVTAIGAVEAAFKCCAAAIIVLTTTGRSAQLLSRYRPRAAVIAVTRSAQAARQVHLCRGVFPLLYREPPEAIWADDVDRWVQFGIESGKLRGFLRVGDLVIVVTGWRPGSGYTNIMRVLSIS
assay_remarks: PKR R532W Single Point Percent Activation Assay
Type: biochemical
condition_details: read-out: Act, % 532W
Description: PKR R532W Single Point Percent Activation Assay A compound described herein was diluted with DMSO and tested at 1 μM concentration. The enzyme was diluted in 1× Buffer: (100 mM KCl, 50 mM Tris 7.5, 5 mM MgCl2, 1 mM DTT, 0.03% BSA). 2 μL of compound solution was first added into wells, and then 180 μL of enzyme solution was added. […] 20 μL ADP was added to start the assay and assay output was evaluated using OD340 at SpectraMax. […]
Recorded activation at 1 µM, one value per entry.

Solved cases (5 shown):
{"compound": "C[C@@H]1CN(Cc2ccc(F)c(F)c2F)CCN1C(=O)c1ccc(NS(=O)(=O)c2cccc3cccnc23)cc1", "system": "PKR R532W (Homo sapiens, UniProt P30613, R532W)", "activation at 1 µM": "1 to 100%"}
{"compound": "C[C@@H]1CN(CC2CCCCO2)CCN1C(=O)c1ccc(NS(=O)(=O)c2cccc3cccnc23)cc1 (stereo partly drawn)", "system": "PKR R532W (Homo sapiens, UniProt P30613, R532W)", "activation at 1 µM": "101 to 500%"}
{"compound": "C[C@H]1CN(Cc2cc(F)c(F)cc2F)CCN1C(=O)c1ccc(NS(=O)(=O)c2cccc3cccnc23)cc1", "system": "PKR R532W (Homo sapiens, UniProt P30613, R532W)", "activation at 1 µM": "1 to 100%"}
{"compound": "C[C@H]1CN(C(=O)O[C@@H]2CCOC2)CCN1C(=O)c1ccc(NS(=O)(=O)c2cccc3cccnc23)cc1", "system": "PKR R532W (Homo sapiens, UniProt P30613, R532W)", "activation at 1 µM": "101 to 500%"}
{"compound": "C[C@H]1CN(CC2CCCCO2)CCN1C(=O)c1ccc(NS(=O)(=O)c2cccc3cccnc23)cc1 (stereo partly drawn)", "system": "PKR R532W (Homo sapiens, UniProt P30613, R532W)", "activation at 1 µM": "1 to 100%"}

API: the following record is the query input.
Req: For the record CC(c1c(F)cc(F)cc1F)N1CCN(C(=O)c2ccc(NS(=O)(=O)c3cccc4cccnc34)cc2)[C@H](C)C1 (stereo partly drawn) , what value of activation at 1 µM is listed for PKR R532W (Homo sapiens, UniProt P30613, R532W)?
Resp: 101 to 500%

###

system: PKR R532W (Homo sapiens, UniProt P30613, R532W)
assay_remarks: PKR R532W Single Point Percent Activation Assay
Assay type: biochemical
condition_details: read-out: Act, % 532W
quantity_name: activation at 1 µM

Solved cases (6 shown):
{"compound": "C[C@H]1CN(Cc2cc(F)cc(F)c2F)CCN1C(=O)c1ccc(NS(=O)(=O)c2cccc3cccnc23)cc1", "activation at 1 µM": "1 to 100%"}
{"compound": "C[C@@H]1CN(CC2CCCC2)CCN1C(=O)c1ccc(NS(=O)(=O)c2cccc3cccnc23)cc1", "activation at 1 µM": "1 to 100%"}
{"compound": "C[C@H]1CN(Cc2cc(F)cc(F)c2)CCN1C(=O)c1ccc(NS(=O)(=O)c2cccc3cccnc23)cc1Cl", "activation at 1 µM": "101 to 500%"}
{"compound": "O=C(c1ccc(NS(=O)(=O)c2cccc3cccnc23)cc1)N1C2CCC1CN(Cc1ccc(F)cc1)C2", "activation at 1 µM": "1 to 100%"}
{"compound": "CC(c1c(F)cccc1F)N1CCN(C(=O)c2ccc(NS(=O)(=O)c3cccc4cccnc34)cc2)[C@H](C)C1 (some centres unmarked)", "activation at 1 µM": "1 to 100%"}
{"compound": "C[C@@H]1CN(C(=O)OCC2CC2)CCN1C(=O)c1ccc(NS(=O)(=O)c2cccc3cccnc23)cc1", "activation at 1 µM": "101 to 500%"}

Req: For the record `O=C1CN(C(=O)c2ccc(NS(=O)(=O)c3cccc4cccnc34)cc2)CCN1CC1CC1` , what value of activation at 1 µM is listed for PKR R532W (Homo sapiens, UniProt P30613, R532W)?
Resp: 1 to 100%

Req: Try `CC(C)OC(=O)N1[C@H](C)CN(C(=O)c2ccc(NS(=O)(=O)c3cccc4cccnc34)cc2)C[C@@H]1C` next.
Resp: 101 to 500%

Req: Try `C[C@@H]1CN(Cc2ccc(Cl)c(F)c2)CCN1C(=O)c1ccc(NS(=O)(=O)c2cccc3cccnc23)cc1` next.
Resp: 101 to 500%

Req: Try `C[C@@H]1CN(Cc2ccc(F)cc2)CCN1C(=O)c1ccc(NS(=O)(=O)c2cccc3cccnc23)cc1` next.
Resp: 101 to 500%

Req: Try `O=C(c1ccc(NS(=O)(=O)c2cccc3cccnc23)cc1)N1CC2CCC(C1)N2Cc1ccc(F)cc1` next.
Resp: 1 to 100%

Req: Try CC(c1ccc(Cl)c(F)c1)N1CCN(C(=O)c2ccc(NS(=O)(=O)c3cccc4cccnc34)cc2)[C@H](C)C1 (some centres unmarked) next.
Resp: 1 to 100%

Req: Try CC(c1cc(F)cc(F)c1)N1CCN(C(=O)c2ccc(NS(=O)(=O)c3cccc4cccnc34)cc2)[C@@H](C)C1 (some centres unmarked) next.
Resp: 1 to 100%

Req: Try `C[C@@H]1CN(Cc2ccccc2)CCN1C(=O)c1ccc(NS(=O)(=O)c2cccc3cccnc23)cc1` next.
Resp: 101 to 500%

Req: Try `CCOC(=O)N1CCN(C(=O)c2ccc(NS(=O)(=O)c3cccc4cccnc34)cc2)[C@@H](C)C1` next.
Resp: 101 to 500%

Req: Try `C[C@H]1CN(Cc2ccc(Cl)c(F)c2)CCN1C(=O)c1ccc(NS(=O)(=O)c2cccc3cccnc23)cc1` next.
Resp: 101 to 500%

Req: Try CC1CN(Cc2ccccc2)CC(C)N1C(=O)c1ccc(NS(=O)(=O)c2cccc3cccnc23)cc1 (centres unmarked) next.
Resp: 101 to 500%

###

system: PKR wt (Homo sapiens, UniProt P30613)
Sequence (P30613 whole entry): as the sequence (P30613 whole entry R532W) above, with W532R counted along it
assay_remarks: PKR WT Single Point Percent Activation Assay
Type: biochemical
Recorded activation at 1 µM, one value per entry.

Solved cases (5 shown):
{"molecule": "O=C1CN(C(=O)c2ccc(NS(=O)(=O)c3cccc4cccnc34)cc2)CCN1Cc1cc(F)cc(F)c1", "measured_value": "101 to 500%"}
{"molecule": "CC(c1c(F)cc(F)cc1F)N1CCN(C(=O)c2ccc(NS(=O)(=O)c3cccc4cccnc34)cc2)[C@H](C)C1 (some centres unmarked)", "measured_value": "101 to 500%"}
{"molecule": "CC1CN(Cc2c(F)ccc(F)c2F)CC(C)N1C(=O)c1ccc(NS(=O)(=O)c2cccc3cccnc23)cc1 (centres unmarked)", "measured_value": "1 to 100%"}
{"molecule": "CC(c1c(F)ccc(F)c1F)N1CCN(C(=O)c2ccc(NS(=O)(=O)c3cccc4cccnc34)cc2)[C@H](C)C1 (some centres unmarked)", "measured_value": "101 to 500%"}
{"molecule": "C[C@H]1CN(C(=O)O[C@@H]2CCOC2)CCN1C(=O)c1ccc(NS(=O)(=O)c2cccc3cccnc23)cc1", "measured_value": "101 to 500%"}

Req: Consider the molecule shown here: `C[C@@H]1CN(Cc2cc(F)c(F)c(F)c2)CCN1C(=O)c1ccc(NS(=O)(=O)c2cccc3cccnc23)cc1` What is its recorded activation at 1 µM?
Resp: 1 to 100%

Req: Try `CC(C)[C@H]1CN(Cc2cc(F)cc(F)c2)CCN1C(=O)c1ccc(NS(=O)(=O)c2cccc3cccnc23)cc1` next.
Resp: 1 to 100%

Req: Try `C[C@H]1CN(CC2CC2)CCN1C(=O)c1ccc(NS(=O)(=O)c2cccc3cccnc23)cc1Cl` next.
Resp: 1 to 100%

###

system: wild type PKR (Homo sapiens)
Sequence (P30613 whole entry): as the sequence (P30613 whole entry R532W) above, with W532R counted along it
assay_remarks: PKR Mutant Assay (AC50), wild type PKR
Assay type: biochemical
condition_details: read-out: PKR WT AC50
quantity_name: AC50

Solved cases (3 shown):
{"compound": "CC(C)OC(=O)N1CCN(C(=O)c2ccc(NS(=O)(=O)c3cccc4cccnc34)cc2)[C@H](C)C1", "quantity_name": "AC50", "measured_value": "< 100 nM"}
{"compound": "CC(C)OC(=O)N1[C@H](C)CN(C(=O)c2ccc(NS(=O)(=O)c3cccc4cccnc34)cc2)C[C@@H]1C", "quantity_name": "AC50", "measured_value": "< 100 nM"}
{"compound": "COc1ccccc1N1CCN(C(=O)c2ccc(NS(=O)(=O)c3cccc4cccnc34)cc2)C(C)C1 (stereo not drawn)", "quantity_name": "AC50", "measured_value": "< 100 nM"}

Req: For the record `O=C(c1ccc(NS(=O)(=O)c2cccc3cccnc23)cc1)N1CCN(C[C@H]2CCOC2)CC1` , what value of AC50 is listed for wild type PKR (Homo sapiens)?
Resp: < 100 nM

Req: Try `CCOC(=O)N1CCN(C(=O)c2ccc(NS(=O)(=O)c3cccc4cccnc34)cc2)[C@@H](C)C1` next.
Resp: > 500 nM

Req: Try `O=C(c1ccc(NS(=O)(=O)c2cccc3cccnc23)cc1)N1CCN(C[C@@H]2CCOC2)CC1` next.
Resp: < 100 nM
